Recorded values, source ChEMBL document CHEMBL1133095.

# Organism: Homo sapiens
# Protocol Details: Concentration required to double the activated partial thromboplastin time (aPTT).
# Format: functional
Recorded Endpoint: aPTT doubling concentration (µg/mL)

1) COc1cc(Cc2c(-c3ccc(OCCN4CCCC4)cc3)sc3cc(O)ccc23)ccc1CN1CCCC1    0.42
2) Oc1ccc2c(Cc3ccc(CN4CCCC4)c(Br)c3)c(-c3ccc(OCCN4CCCC4)cc3)sc2c1    1.45
3) COc1cc(Cc2c(-c3ccc(OCCN4CCCC4)nc3)sc3cc(O)ccc23)ccc1CN1CCCC1    0.23

* * *

# Protocol Details: Volume value at the dose of 5 mg/kg
# Type: ADME, organism-based
# Set-up: dose 5 mg/kg
# Condition Info: in vivo, read-out: Volume
Entries and their Vd values follow.
Recorded Endpoint: Vd (L/kg)

1. COc1cc(Cc2c(-c3ccc(OCCN4CCCC4)nc3)sc3cc(O)ccc23)ccc1CN1CCCC1    27.5
2. COc1cc(Cc2c(-c3ccc(OCCN4CCCC4)cc3)sc3cc(O)ccc23)ccc1CN1CCCC1    37.4
